- Tgt: rNav1.8 Na+ channels in ND7-23 cells (Rattus norvegicus, UniProt Q62968)
- Sequence (Q62968 whole entry): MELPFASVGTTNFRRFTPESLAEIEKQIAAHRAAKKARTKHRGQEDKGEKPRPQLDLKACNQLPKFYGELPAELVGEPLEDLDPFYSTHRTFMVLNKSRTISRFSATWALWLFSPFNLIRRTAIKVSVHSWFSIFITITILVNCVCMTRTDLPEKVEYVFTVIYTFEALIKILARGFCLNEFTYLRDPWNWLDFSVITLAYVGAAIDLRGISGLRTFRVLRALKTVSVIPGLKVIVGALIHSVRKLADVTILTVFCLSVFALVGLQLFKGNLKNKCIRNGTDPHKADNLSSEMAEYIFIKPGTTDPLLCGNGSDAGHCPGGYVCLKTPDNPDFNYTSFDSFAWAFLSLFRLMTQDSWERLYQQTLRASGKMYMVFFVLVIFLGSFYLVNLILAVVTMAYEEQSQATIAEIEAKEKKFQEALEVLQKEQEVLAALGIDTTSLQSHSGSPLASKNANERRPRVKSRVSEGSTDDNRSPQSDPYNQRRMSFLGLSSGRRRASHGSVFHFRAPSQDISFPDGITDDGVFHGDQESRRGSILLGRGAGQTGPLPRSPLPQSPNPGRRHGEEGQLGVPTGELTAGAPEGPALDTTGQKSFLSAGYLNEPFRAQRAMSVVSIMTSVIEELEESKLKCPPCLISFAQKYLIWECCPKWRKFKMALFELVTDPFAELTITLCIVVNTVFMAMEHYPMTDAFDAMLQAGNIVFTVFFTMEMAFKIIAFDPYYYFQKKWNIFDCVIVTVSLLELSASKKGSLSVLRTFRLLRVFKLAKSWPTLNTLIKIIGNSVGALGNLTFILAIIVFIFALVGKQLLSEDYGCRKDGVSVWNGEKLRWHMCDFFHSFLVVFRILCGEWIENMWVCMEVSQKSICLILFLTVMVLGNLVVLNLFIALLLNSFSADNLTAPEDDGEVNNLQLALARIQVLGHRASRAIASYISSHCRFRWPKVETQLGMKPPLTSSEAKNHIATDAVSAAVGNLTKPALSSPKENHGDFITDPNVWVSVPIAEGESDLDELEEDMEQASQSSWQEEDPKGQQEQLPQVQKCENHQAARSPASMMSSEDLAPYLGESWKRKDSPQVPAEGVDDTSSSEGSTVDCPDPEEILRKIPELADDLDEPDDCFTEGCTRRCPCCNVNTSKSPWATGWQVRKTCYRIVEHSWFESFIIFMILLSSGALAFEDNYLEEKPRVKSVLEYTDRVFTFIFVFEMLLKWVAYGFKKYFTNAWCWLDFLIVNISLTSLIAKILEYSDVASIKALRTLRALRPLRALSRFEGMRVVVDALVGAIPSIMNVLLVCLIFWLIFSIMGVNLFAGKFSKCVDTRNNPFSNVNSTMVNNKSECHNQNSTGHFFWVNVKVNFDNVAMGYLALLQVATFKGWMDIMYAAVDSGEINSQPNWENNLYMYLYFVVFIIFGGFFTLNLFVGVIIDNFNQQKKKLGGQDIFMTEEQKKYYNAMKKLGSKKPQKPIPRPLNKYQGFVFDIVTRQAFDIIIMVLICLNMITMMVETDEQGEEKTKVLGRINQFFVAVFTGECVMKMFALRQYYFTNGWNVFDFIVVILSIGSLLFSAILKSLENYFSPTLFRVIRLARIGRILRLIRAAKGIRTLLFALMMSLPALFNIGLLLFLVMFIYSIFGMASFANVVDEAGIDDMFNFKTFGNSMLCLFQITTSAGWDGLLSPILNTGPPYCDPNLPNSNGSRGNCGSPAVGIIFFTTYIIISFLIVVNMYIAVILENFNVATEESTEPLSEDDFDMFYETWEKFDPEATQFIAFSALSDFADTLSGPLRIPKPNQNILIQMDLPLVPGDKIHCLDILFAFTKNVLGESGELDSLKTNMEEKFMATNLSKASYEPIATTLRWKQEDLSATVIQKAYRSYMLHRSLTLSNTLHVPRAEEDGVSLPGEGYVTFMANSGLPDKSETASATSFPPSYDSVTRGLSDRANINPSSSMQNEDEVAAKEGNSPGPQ
- Test Details: Whole-cell patch clamp, rNav1.8 INa in ND7-23 cells (Example 2)
Recorded Endpoint: IC50

> print(dat)
                                   molecule                                       tgt  recorded.endpoint  value.observed
1  COc1ccccc1OCC(O)CN1CCN(CC(=O)Nc2c(C)cccc2C)CC1 (racemic)  rNav1.8 Na+ channels in ND7-23 cells (Rattus norvegicus, UniProt Q62968)               IC50         21.5 µM

----------
- Tgt: rNav1.8 Na+ channels in ND7-23 cells (Rattus norvegicus, UniProt Q62968)
- Test Details: Whole-cell patch clamp, rNav1.8 INa in ND7-23 cells (Example 2)
- Test Conditions: IC50 value, block of Nav1.8 INa, V0.5, holding potential −40 mV
pIC50: −log10 of the molar value.
Recorded Endpoint: pIC50

> print(dat)
                                   compound                                       tgt  recorded.endpoint  value.observed
1  COc1ccccc1OCC(O)CN1CCN(CC(=O)Nc2c(C)cccc2C)CC1 (racemic)  rNav1.8 Na+ channels in ND7-23 cells (Rattus norvegicus, UniProt Q62968)              pIC50            5.36

----------
- Tgt: hNav1.7+β1 subunits in HEK293 cells (Homo sapiens, UniProt Q15858)
- Sequence (Q15858 whole entry): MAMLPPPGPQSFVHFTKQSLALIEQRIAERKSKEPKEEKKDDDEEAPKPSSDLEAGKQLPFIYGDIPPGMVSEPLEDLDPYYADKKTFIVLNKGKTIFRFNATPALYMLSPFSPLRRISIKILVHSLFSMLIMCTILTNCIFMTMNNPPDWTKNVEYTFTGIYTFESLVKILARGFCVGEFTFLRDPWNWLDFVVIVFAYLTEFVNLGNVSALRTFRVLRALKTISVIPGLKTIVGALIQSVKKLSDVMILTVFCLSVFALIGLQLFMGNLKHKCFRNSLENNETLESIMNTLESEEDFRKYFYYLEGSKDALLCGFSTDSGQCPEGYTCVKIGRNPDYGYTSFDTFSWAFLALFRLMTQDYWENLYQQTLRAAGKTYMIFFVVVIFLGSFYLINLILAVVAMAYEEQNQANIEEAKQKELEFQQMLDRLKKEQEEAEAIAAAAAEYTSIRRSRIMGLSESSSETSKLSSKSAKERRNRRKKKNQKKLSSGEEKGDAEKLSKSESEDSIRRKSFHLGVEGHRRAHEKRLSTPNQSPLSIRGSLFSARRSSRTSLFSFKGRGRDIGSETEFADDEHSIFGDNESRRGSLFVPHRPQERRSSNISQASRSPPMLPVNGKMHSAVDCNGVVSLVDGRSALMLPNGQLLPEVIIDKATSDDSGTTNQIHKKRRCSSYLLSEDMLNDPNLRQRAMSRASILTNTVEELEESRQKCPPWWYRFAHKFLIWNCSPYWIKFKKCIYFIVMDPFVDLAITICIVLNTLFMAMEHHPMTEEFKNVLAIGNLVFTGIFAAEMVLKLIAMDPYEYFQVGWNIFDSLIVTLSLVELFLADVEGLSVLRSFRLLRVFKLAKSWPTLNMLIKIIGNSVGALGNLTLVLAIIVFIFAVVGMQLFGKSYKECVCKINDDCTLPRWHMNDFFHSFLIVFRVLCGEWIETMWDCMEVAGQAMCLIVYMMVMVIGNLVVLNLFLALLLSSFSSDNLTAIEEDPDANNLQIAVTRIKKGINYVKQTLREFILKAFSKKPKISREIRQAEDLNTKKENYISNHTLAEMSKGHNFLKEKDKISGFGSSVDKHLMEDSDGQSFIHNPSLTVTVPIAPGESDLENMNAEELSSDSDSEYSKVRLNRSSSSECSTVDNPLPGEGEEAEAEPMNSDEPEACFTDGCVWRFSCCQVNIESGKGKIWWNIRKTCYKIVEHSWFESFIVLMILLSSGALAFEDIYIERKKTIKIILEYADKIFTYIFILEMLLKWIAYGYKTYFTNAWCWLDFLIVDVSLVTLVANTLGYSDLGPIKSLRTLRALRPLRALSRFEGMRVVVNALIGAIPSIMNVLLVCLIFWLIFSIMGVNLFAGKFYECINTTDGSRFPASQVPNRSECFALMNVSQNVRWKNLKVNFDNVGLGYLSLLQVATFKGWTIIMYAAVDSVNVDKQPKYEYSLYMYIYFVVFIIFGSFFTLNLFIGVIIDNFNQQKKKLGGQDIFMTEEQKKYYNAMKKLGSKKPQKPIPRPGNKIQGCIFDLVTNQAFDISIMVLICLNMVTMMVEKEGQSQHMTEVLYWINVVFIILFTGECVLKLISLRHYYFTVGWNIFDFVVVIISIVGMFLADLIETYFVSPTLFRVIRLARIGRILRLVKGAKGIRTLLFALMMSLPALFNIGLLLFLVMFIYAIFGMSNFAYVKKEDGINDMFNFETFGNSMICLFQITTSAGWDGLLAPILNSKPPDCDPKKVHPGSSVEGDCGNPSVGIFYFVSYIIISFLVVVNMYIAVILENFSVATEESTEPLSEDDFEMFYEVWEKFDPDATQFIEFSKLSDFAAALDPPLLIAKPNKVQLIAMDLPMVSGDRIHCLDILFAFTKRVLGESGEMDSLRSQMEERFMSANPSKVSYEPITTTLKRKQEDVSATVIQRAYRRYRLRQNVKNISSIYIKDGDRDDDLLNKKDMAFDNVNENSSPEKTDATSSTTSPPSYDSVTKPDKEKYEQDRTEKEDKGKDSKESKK
- Sequence (Q07699 19-218 partner): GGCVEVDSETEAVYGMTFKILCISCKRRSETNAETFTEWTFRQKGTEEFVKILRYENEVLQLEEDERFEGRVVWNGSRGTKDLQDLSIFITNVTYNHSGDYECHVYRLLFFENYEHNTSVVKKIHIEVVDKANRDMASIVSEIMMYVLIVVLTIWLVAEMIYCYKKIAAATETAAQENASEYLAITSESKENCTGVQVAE
- Test Details: Whole-cell patch clamp, hNav1.7 INa in HEK293 cells (Example 2)
- Test Conditions: IC50 value, block of Nav1.7 INa, V0, holding potential −120 mV
Recorded Endpoint: IC50 (µM)

> print(dat)
                                   molecule                                       tgt  recorded.endpoint  value.observed
1  COc1ccccc1OCC(O)CN1CCN(CC(=O)Nc2c(C)cccc2C)CC1 (racemic)  hNav1.7+β1 subunits in HEK293 cells (Homo sapiens, UniProt Q15858)               IC50            10.4

----------
- Tgt: hNav1.7+β1 subunits in HEK293 cells (Homo sapiens, UniProt Q15858)
- Test Details: Whole-cell patch clamp, hNav1.7 INa in HEK293 cells (Example 2)
- Test Conditions: IC50 value, block of Nav1.7 INa, V0.5, holding potential −70 mV
Recorded Endpoint: IC50 (µM)

> print(dat)
                                   molecule                                       tgt  value.observed
1  COc1ccccc1OCC(O)CN1CCN(CC(=O)Nc2c(C)cccc2C)CC1 (racemic)  hNav1.7+β1 subunits in HEK293 cells (Homo sapiens, UniProt Q15858)            3.25

----------
- Tgt: rNav1.8 Na+ channels in ND7-23 cells (Rattus norvegicus)
- Test Details: Whole-cell patch clamp, rNav1.8 INa in ND7-23 cells (Example 2)
- Test Conditions: Dissociation constant for rested state (Kdr), estimated from shift of steady-state inactivation curve (Bean equation)
Recorded Endpoint: Kd (µM)

> print(dat)
                                   molecule  recorded.endpoint  value.observed
1  COc1ccccc1OCC(O)CN1CCN(CC(=O)Nc2c(C)cccc2C)CC1 (racemic)                 Kd            22.8

----------
- Tgt: hNav1.7+β1 subunits in HEK293 cells (Homo sapiens)
- Test Details: Whole-cell patch clamp, hNav1.7 INa in HEK293 cells (Example 2)
- Test Conditions: Dissociation constant for inactivated state (Kdi), estimated from shift of steady-state inactivation curve (Bean equation)
pKd: −log10 of the molar value.
Recorded Endpoint: pKd

> print(dat)
                                   molecule  value.observed
1  COc1ccccc1OCC(O)CN1CCN(CC(=O)Nc2c(C)cccc2C)CC1 (racemic)            6.33

----------
- Tgt: hNav1.7+β1 subunits in HEK293 cells (Homo sapiens, UniProt Q15858)
- Test Details: Whole-cell patch clamp, hNav1.7 INa in HEK293 cells (Example 2)
- Test Conditions: Dissociation constant for rested state (Kdr), estimated from shift of steady-state inactivation curve (Bean equation)
Recorded Endpoint: Kd (µM)

> print(dat)
                                   compound  value.observed
1  COc1ccccc1OCC(O)CN1CCN(CC(=O)Nc2c(C)cccc2C)CC1 (racemic)            12.1

----------
- Tgt: rNav1.8 Na+ channels in ND7-23 cells (Rattus norvegicus, UniProt Q62968)
- Test Details: Whole-cell patch clamp, rNav1.8 INa in ND7-23 cells (Example 2)
- Test Conditions: Dissociation constant for inactivated state (Kdi), estimated from shift of steady-state inactivation curve (Bean equation)
Recorded Endpoint: Kd (µM)

> print(dat)
                                   compound  value.observed
1  COc1ccccc1OCC(O)CN1CCN(CC(=O)Nc2c(C)cccc2C)CC1 (racemic) [Ranolazine]            0.64
